Where these numbers come from: PubChem BioAssay (NCI)

tested on: UO-31 renal; test: NCI tumour cell line growth inhibition, 48 h
The entries below come with measured TGI values attached.
experimentalEndpoint: TGI

{"compound": "Nc1ccccc1C(=O)/C=C/c1ccccc1O", "reading": "> 100 µM"}
{"compound": "CS(=O)(=O)CCC1CCC(=O)O1 (configuration not stated)", "reading": "> 100 µM"}
{"compound": "Cc1nc2ccc(N=Nc3c(C)noc3C)cc2[nH]1", "reading": "> 100 µM"}
{"compound": "Cc1ccc2c(c1C)CC1(Cc3ccc(C)c(C)c3C1=O)C2=O (configuration not stated)", "reading": "> 100 µM"}
{"compound": "O=C1NC(c2ccccc2Cl)Nc2ccccc21 (configuration not stated)", "reading": "> 100 µM"}
{"compound": "CN(CC(=O)Nc1ccccc1C(=O)O)c1ccccc1", "reading": "> 100 µM"}
{"compound": "O=C(NC1CCCCC1)c1n[nH]nc1Cl", "reading": "> 100 µM"}
